assay-explanation: viability gain of MRP-1-high H69AR cells under doxorubicin, pilot screen, MRP-1 activator project, CellTiter-Glo, duplicate (AID 807);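 note: compound pretreatment 18-22 h then 72 h combined with doxorubicin; 0% = doxorubicin alone and 100% = vehicle without doxorubicin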
condition-details: H69AR viability with doxorubicin, CellTiter-Glo luminescence; at 10 µM; active compounds read high
Reported viability increase by item:

compound	viability increase / %
O=C(NCCN1CCN(c2cccc(Cl)c2)CC1)C1CCCN(S(=O)(=O)c2cnc[nH]2)C1 (stereo not drawn)	-1.5
CCOCCn1c(SCCc2ccccc2)nc2c1c(=O)[nH]c(=O)n2C	-1.92
Cc1cc2ccccc2n1CCNC(=O)c1cccs1	-2.29
COc1ccc(Nc2cc(C)nc3nc(C)nn23)c(OC)c1	-1.65
O=c1[nH]c2c(s1)C=Nc1ccccc1N2	-2.29
COc1ccc(C(=O)Nc2c(N)nc(SCC(=O)N3CCCCCC3)[nH]c2=O)cc1OC	-0.26
CCOC(=O)N1CCC(NC(=O)c2ccc(NC(=O)C3CCCO3)cc2)CC1 (stereo not drawn)	0.49
Cc1nn(-c2ccccc2)c(C)c1C(=O)OCC(=O)Nc1ccc2c(c1)OCO2	-0.97
COc1ccc(Br)cc1CNC(=O)C1CCC(=O)N1C(C)C (stereo not drawn)	-2.9
COc1ccc(NC(=O)C2CCCN(S(=O)(=O)c3cccnc3)C2)c(OC)c1 (stereo not drawn)	1.08
COc1cccc(N2CCN(C(=O)CN(C)S(=O)(=O)c3ccc4c(c3)CCC(=O)N4)CC2)c1	-2.87
CCN(CC)c1ccc(C=Nc2ccc(C#N)cc2)c(O)c1	-0.93
Cc1ccc(C(=O)N(Cc2nc(-c3ccc(C)cc3)no2)C(C)C)cc1	0.77
CCCc1nnc(NC(=O)CC(=O)OCC)s1	-1.07
NC(=O)c1cccc(S(=O)(=O)N2CC(c3ccccc3)CC2=O)c1 (stereo not drawn)	-1.11
OC(COc1ccccc1Cl)CN1CCN(CC(O)COc2ccccc2Cl)CC1 (stereo not drawn)	-5.92
Clc1ccc(CCNc2ncnc3nc[nH]c23)cc1	0.89
O=C1CCCCCN1Cc1nnc(SCc2nc3ccccc3s2)n1-c1ccccn1	-3.45
Cn1c(=O)c2c(nc(OCc3ccccc3)n2C)n(C)c1=O	3.09
CCN(CC)C(=O)C1CCN(S(=O)(=O)c2ccc(C3CNC(=O)C3)cc2)CC1 (stereo not drawn)	0.02
COc1ccc2nc(NC(=O)C3COc4ccccc4O3)sc2c1 (stereo not drawn)	2.25
Cc1nn(Cc2nc(-c3cccs3)no2)c(C)c1Br	-1.13
Cc1cc(C)c2c(n1)nn1c(C)c(CCC(=O)NCc3ccco3)c(C)nc21	-4.82

###

assay-explanation: inhibitors of the yeast RAM network, pilot screen, dse1pr::URA3 reporter, 5-FOA selection (AID 869);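 note: 0% = DMSO wells with no growth and 100% = 10 µM 1-NA-PP1 with full growth; RAM network block rescues cells from 5-FOA so hits raise OD615 growth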
condition-details: S. cerevisiae dse1pr::URA3 5-FOA growth, OD615, 2 d; at 10 µM; active compounds read high; strain carries analog-sensitive mutant Cbk1 kinase
measurement-label: inhibition (%)

molecule	measurement-label	reported
CCOc1ccc(NC(=O)CN(c2ccc(OC)cc2)S(C)(=O)=O)cc1	inhibition	1.7
CCCCC(CC)CNC(=O)c1cccs1 (configuration not stated)	inhibition	-0.705
Cc1ccc(-n2ncc3c(NCCCn4ccnc4)ncnc32)c(C)c1	inhibition	1.5
CC(=O)CCC(=O)NCCc1ccccc1F	inhibition	0.02
CC(Oc1ccc(Cl)cc1Cl)C(=O)NCCCN1CCOCC1 (configuration not stated)	inhibition	-0.36
Cc1ccc2oc(=O)c3cnn(CC(=O)N4CCN(c5ccccn5)CC4)c3c2c1	inhibition	1.41
O=C(COC(=O)c1ccco1)Nc1ccc(Br)cc1	inhibition	1.45
CCSCCOC(=O)C1=C(C)NC(=O)NC1c1ccccc1 (configuration not stated)	inhibition	1.47
COc1ccccc1N1CCN(C(=O)CCCCn2c(=O)[nH]c3ccsc3c2=O)CC1	inhibition	2.13
O=S(=O)(Nc1ccc(-c2nc3cccnc3s2)cc1)c1cccs1	inhibition	1.79
COCCCN1CC23C=CC(O2)C(C(=O)O)C3C1=O (configuration not stated)	inhibition	-0.105
CCc1nnc(NC(=O)CSc2nc3c(c(=O)n2CC)SC(C)C3)s1 (configuration not stated)	inhibition	3.99

###

assay-explanation: Restrictive medium S. cerevisiae growth inhibition, OD615, pilot screen of yeast lifespan reduction project, restrictive growth control (AID 706);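 note: modified DeaD lifespan yeast strain shifted to restrictive glucose medium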
condition-details: OD615, 48 h, at 10 µM, active compounds read high

compound	unit-spec	growth inhibition
Cc1ccc(/C(O)=C2/C(=O)C(=O)N(CCN3CCOCC3)C2c2cccnc2)cc1 (stereo unspecified)	%	4.34
Cc1cc(Nc2cccc(Cl)c2C)n2ncnc2n1	%	-1.32
C=C(C)CSc1nnc(-c2ccc(OC)c(OC)c2)n1N	%	7.34
Cc1cc2c(cc(C(=O)N3CCC(C(=O)NC4CCCC4)CC3)n2Cc2c(F)cccc2Cl)o1	%	-5.26
CC(NC(=O)c1ccco1)C(c1cccs1)N1CCN(c2ccccc2)CC1 (stereo unspecified)	%	-18.3
COc1ccc(N2CCN(C(=O)c3ccc(CNc4c(N5CCOCC5)c(=O)c4=O)cc3)CC2)cc1	%	8.53
COc1ccc(-c2cc(C(F)(F)F)n3nc(C(=O)N4CCCC4)cc3n2)cc1	%	-2.34
Cc1ccc(C(=O)NCc2ccc(Cl)c(Cl)c2)o1	%	4.06
COC(=O)C1=COC(C)C2CN3CCc4c([nH]c5ccccc45)C3CC12 (stereo unspecified)	%	1.04
O=C(O)CC(Cn1cnnn1)c1ccccc1 (stereo unspecified)	%	-2.96
COc1ccc(C2/C(=C(/O)c3ccc(F)cc3)C(=O)C(=O)N2CCCN(C)C)cc1 (stereo unspecified)	%	-4.55

###

assay-explanation: Restrictive medium S. cerevisiae growth inhibition, OD615, pilot screen of yeast lifespan reduction project, restrictive growth control (AID 706);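 note: modified DeaD lifespan yeast strain shifted to restrictive glucose medium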
condition-details: OD615, 48 h, at 10 µM, active compounds read high
The source made the active and inactive calls.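 How the source made its calls: active means growth inhibition above a set limit, 3 SD over mean compound inhibition, in both replicates (cut at about 43% in these data); inconclusive means above the limit in only one replicate; inactive means at or below the limit in both replicates.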
measurement-label: growth inhibition

compound	measurement-label	reported
COc1ccccc1N1CCN(C(CNS(=O)(=O)c2cccs2)c2cccnc2)CC1 (stereo not drawn)	growth inhibition	-25.5% (inactive)
COc1ccc(-n2c(Cc3cccn3C)nnc2SCC(=O)Nc2ccc(C(C)=O)cc2)cc1	growth inhibition	17.8% (inactive)
CCC(=O)N1c2ccccc2-c2nnc(SC)nc2OC1c1ccc(N(C)C)cc1 (stereo not drawn)	growth inhibition	4.3% (inactive)
CN(CCNC(=O)Cn1c(=O)sc2ccccc21)Cc1ccccc1	growth inhibition	-7.1% (inactive)
CCCC(=O)C1C(=O)CC(C)(C)C(c2cc(C)no2)C1=O (stereo not drawn)	growth inhibition	-12.9% (inactive)
CCCC(=O)NC(C)c1nc2ccccc2n1C (stereo not drawn)	growth inhibition	-2.34% (inactive)
O=C1CN(C(=O)c2ccc(Br)o2)C(c2ccccc2)c2cc(F)ccc2N1 (stereo not drawn)	growth inhibition	-28% (inactive)
Cc1ccc2nc(NC(=O)C3CCN(S(=O)(=O)c4ccc5c(c4)oc(=O)n5C)CC3)sc2c1	growth inhibition	-24.5% (inactive)
O=C1c2cccnc2C(=O)N1Cc1ccccc1	growth inhibition	-3.01% (inactive)
CC(=O)N(CCCN(C)C)CCC(C)CCC=C(C)C (stereo not drawn)	growth inhibition	-5.88% (inactive)
Brc1ccc2c(c1)c1nc3ccccc3nc1n2CCN1CCOCC1	growth inhibition	-0.14% (inactive)
Cc1ccc(C2CC(c3ccccc3)n3ncnc3N2)cc1 (stereo not drawn)	growth inhibition	6.08% (inactive)
CC1(C)CC(=O)C=C(NCCN2CCN(C(=O)Nc3ccc(Cl)cc3)CC2)C1	growth inhibition	5.34% (inactive)
Cc1ccc(C2c3c(oc4ccc(C)cc4c3=O)C(=O)N2CCCN2CCOCC2)cc1 (stereo not drawn)	growth inhibition	-3.63% (inactive)
CC(c1ccccc1)N1CNc2c(c(=O)n(C)c(=O)n2C)C1 (stereo not drawn)	growth inhibition	2.52% (inactive)
Cc1onc(-c2ccccc2Cl)c1C(=O)Nc1ccc(OCC(=O)N2CCOCC2)cc1	growth inhibition	5.62% (inactive)
CCn1cc(C(=O)N2CC(C)CC(C)C2)c(=O)c2cc(S(=O)(=O)N(C)C)ccc21 (stereo not drawn)	growth inhibition	6.52% (inactive)
CCN1C(=O)NC2C1N(S(C)(=O)=O)CCN2S(C)(=O)=O (stereo not drawn)	growth inhibition	2.34% (inactive)
C=CCn1c(CCCNC(=O)C(C)(C)C)nc2ccccc21	growth inhibition	-20.9% (inactive)
C=CCn1c(SCc2ccc(F)cc2)nc2c1c(=O)[nH]c(=O)n2C	growth inhibition	-8.69% (inactive)
CCCCCn1c(C(C)NC(=O)CCC)nc2ccccc21 (stereo not drawn)	growth inhibition	-2.23% (inactive)
O=C(CN1CCOc2ccccc21)NC1CCCCCCC1	growth inhibition	21.8% (inactive)
COC(=O)c1ccccc1Nc1cc(C)nc2nc(C)nn12	growth inhibition	0.455% (inactive)

###

assay-explanation: growth suppression of PTEN-deleted HCT116, pilot screen, cell-based, HCT116 clonal line, CellTiter-Glo (AID 824);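 note: 0% = 20 µM Hyamine control and 100% = vehicle cell control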
condition-details: 60 h, at 10 µM, active compounds read low
Results filed as inconclusive are left out.
measurement-label: viability (%)

molecule	measurement-label	reported
CCOC(=O)c1ccc(NS(=O)(=O)c2cc(-c3nnnn3CC)ccc2OC)cc1	viability	90.2
CCOC(=O)N1CCC(N2CC34C=CC(O3)C(C(=O)Nc3ccc(C(C)C)cc3)C4C2=O)CC1 (stereo not given)	viability	99.6
O=C(C1COc2ccccc2O1)N1CCn2c(nc3ccccc32)C1 (stereo not given)	viability	92
CCc1nccn1S(=O)(=O)c1ccc2ccccc2c1	viability	103
COc1cccc(Cn2nnc(C(=O)NCc3ccc(F)cc3)c2N)c1	viability	85.6

These data points were gathered from PubChem BioAssay.
